As shown below, each of these compounds has a reported IC50 value.
tested on: Coxsackievirus B3; experiment: Antivirus activity against Coxsackievirus B3 infected in African green monkey vero cells assessed as inhibition of virus-induced cytopathic effect; format: functional, organism-based; conditions: Enterovirus B

// known answers, use as guide
INSERT INTO measurements (molecule, meas_value) VALUES
  ('COC(=O)CCC[C@@H]1[C@H]2CCCN3CCC[C@@H](CN1S(=O)(=O)c1ccc(/C(C)=N/O)cc1)[C@@H]23', '> 39.3 µM'),
  ('CC(=O)c1ccc(S(=O)(=O)N2C[C@@H]3CCCN4CCC[C@@H]([C@H]34)[C@H]2CCCC(=O)N2CCC2)cc1', '> 127 µM');

Noted for CNC(=O)CCC[C@@H]1[C@H]2CCCN3CCC[C@@H](CN1S(=O)(=O)c1cccc(C(F)(F)F)c1)[C@@H]23 : its IC50 reads 2.56 µM

CC(=O)c1ccc(S(=O)(=O)N2C[C@@H]3CCCN4CCC[C@@H]([C@H]34)[C@H]2CCCC(=O)N(C)C)cc1 yielded IC50 of > 130 µM

====

test system: Coxsackievirus B3; assay: Antivirus activity against Coxsackievirus B3 infected in African green monkey vero cells assessed as inhibition of virus-induced cytopathic effect; type: functional, organism-based; conditions: Enterovirus B
Measured endpoint: IC50 (µM)

1: COCCCC[C@@H]1[C@H]2CCCN3CCC[C@@H](CN1S(=O)(=O)c1cccc(C(F)(F)F)c1)[C@@H]23
2: COC(=O)CCC[C@@H]1[C@H]2CCCN3CCC[C@@H](CN1S(=O)(=O)c1ccc(OC(F)(F)F)cc1)[C@@H]23
[Q] I'd appreciate it if you could identify which of 1 and 2 has the greater IC50. Use the label to indicate which entry you chose.
[A] 2

====

assay: Cytotoxicity against African green monkey Vero cells assessed as growth inhibition after 48 hrs; assay type: cell-based; settings: chlorocebus sabaeus, read-out: TC50
Measured endpoint: CC50 at 48 h (µM)
Give the number; µM is assumed, so skip it.

INSERT INTO assay_data (molecule, meas_value) VALUES
  ('N#Cc1ccc(S(=O)(=O)N2C[C@@H]3CCCN4CCC[C@@H]([C@H]34)[C@H]2CCCCN2CCOCC2)cc1', 96.2);

Entry under test: CN(C)C(=O)CCC[C@@H]1[C@H]2CCCN3CCC[C@@H](CN1S(=O)(=O)c1ccc(OC(F)(F)F)cc1)[C@@H]23 . Its CC50 at 48 h was 174

Entry under test: O=C(CCC[C@@H]1[C@H]2CCCN3CCC[C@@H](CN1S(=O)(=O)c1ccc(OC(F)(F)F)cc1)[C@@H]23)N1CCOCC1 . Its CC50 at 48 h was 162

Value of CC50 at 48 h reported for the compound COC(=O)CCC[C@@H]1[C@H]2CCCN3CCC[C@@H](CN1S(=O)(=O)c1ccc(C(C)=O)cc1)[C@@H]23 is 193

Briefly, CC50 at 48 h measured for COC(=O)CCC[C@@H]1[C@H]2CCCN3CCC[C@@H](CN1S(=O)(=O)c1ccc(/C(C)=N/O)cc1)[C@@H]23 : 53.9

The reported CC50 at 48 h of the compound CN1CCN(CCCC[C@@H]2[C@H]3CCCN4CCC[C@@H](CN2S(=O)(=O)c2cccc(C(F)(F)F)c2)[C@@H]34)CC1 was 51.5

Data point: CNC(=O)CCC[C@@H]1[C@H]2CCCN3CCC[C@@H](CN1S(=O)(=O)c1cccc(C(F)(F)F)c1)[C@@H]23 ; CC50 at 48 h = 172

FYI, the data here is from ChEMBL document CHEMBL3603764.
